Ref: patent US20240109974A1

# target-or-system: T1, Cynomolgus TNFR2-His (Sino 90102-C08H) (cynomolgus monkey, UniProt A0A2K5VET2 132-366)
# T1 construct: Bought protein; also called cynomolgus monkey TNFR2; recombinant cynomolgus monkey TNFR2 protein; not shown: His tag
# T1 sequence: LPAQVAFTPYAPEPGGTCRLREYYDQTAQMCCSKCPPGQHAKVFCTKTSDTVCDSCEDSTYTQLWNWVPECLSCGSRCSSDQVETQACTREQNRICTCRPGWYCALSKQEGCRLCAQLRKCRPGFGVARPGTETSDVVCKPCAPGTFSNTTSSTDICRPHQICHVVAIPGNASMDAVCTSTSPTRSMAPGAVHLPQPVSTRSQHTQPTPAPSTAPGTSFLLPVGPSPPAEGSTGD
# assay-comment: SPR (Biacore T200), antibody captured on Protein A chip
property-measured: Kd (pM)

• 219-Hu5 (antibody, V domains shown, also called VH7 + VL5) VH: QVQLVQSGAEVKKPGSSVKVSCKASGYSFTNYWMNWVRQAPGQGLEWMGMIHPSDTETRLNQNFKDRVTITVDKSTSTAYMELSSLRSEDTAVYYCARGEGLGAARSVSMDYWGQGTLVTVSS VL: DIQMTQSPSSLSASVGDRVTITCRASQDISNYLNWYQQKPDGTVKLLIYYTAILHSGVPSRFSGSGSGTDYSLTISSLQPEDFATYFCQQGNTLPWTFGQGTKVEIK = 626
• 001-Hu1 (antibody, V domains shown, Humanized form of #001; also called VH1 + VL1) VH: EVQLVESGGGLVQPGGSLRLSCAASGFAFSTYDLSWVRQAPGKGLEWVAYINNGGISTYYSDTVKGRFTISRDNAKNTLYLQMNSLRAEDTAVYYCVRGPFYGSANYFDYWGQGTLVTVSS VL: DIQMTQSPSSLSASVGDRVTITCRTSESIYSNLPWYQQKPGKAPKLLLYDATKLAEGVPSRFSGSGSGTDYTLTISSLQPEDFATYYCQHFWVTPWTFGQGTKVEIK = 470
• 224-WT (antibody, V domains shown, Human-murine chimeric wild-type molecule; also called human-murine chimeric antibody WT of #224) VH: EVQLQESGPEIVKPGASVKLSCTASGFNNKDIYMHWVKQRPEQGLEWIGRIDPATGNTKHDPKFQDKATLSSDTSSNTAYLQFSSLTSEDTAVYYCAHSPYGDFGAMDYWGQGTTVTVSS VL: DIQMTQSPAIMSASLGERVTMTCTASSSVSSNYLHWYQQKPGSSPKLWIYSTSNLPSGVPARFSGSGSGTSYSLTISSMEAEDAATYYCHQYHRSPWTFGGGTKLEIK = 897
• 001-Hu4 (antibody, V domains shown, Humanized form of #001; also called VH2 + VL4) VH: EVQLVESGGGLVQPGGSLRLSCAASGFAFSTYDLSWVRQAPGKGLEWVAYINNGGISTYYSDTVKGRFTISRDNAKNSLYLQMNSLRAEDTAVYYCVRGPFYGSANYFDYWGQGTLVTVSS VL: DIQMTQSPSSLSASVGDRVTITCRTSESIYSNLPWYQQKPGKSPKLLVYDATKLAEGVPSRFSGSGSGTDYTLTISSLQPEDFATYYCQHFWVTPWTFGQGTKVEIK = 473
• 219-Hu1 (antibody, V domains shown, also called VH3 + VL5) VH: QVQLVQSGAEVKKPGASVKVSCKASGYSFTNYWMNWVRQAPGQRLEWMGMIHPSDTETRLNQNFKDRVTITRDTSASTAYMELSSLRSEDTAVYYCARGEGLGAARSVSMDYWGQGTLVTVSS VL: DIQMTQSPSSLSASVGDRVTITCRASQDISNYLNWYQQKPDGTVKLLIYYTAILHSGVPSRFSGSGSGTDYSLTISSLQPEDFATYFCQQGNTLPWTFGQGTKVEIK = 532
